Reported melting point values for a set of compounds

The following compounds have reported results that may help.
INSERT INTO results (compound, endpoint_name, test_result) VALUES
  ('CC(C)(OCCCCCCCCc1csc(-c2ccccc2)n1)C(=O)O', 'melting point', '64 to 70 °C'),
  ('CC(C)(OCCCCCCCc1coc(-c2ccc(F)cc2)n1)C(=O)O', 'melting point', '67 to 74 °C'),
  ('CC(C)(OCCCCCCc1coc(-c2ccc(F)cc2)n1)C(=O)O', 'melting point', '80 to 83 °C'),
  ('Cc1oc(-c2ccccc2)nc1CCCCCOC(C)(C)C(=O)O (hydrate or solvate)', 'melting point', '66 to 68 °C'),
  ('CC(C)(OCCCCCCCc1coc(-c2ccc(Cl)cc2)n1)C(=O)O', 'melting point', '91 to 93 °C');

Item under review: Cc1oc(-c2ccc(C(C)(C)C)cc2)nc1CCCCCCOC(C)(C)C(=O)O . Reported melting point?
89 to 91 °C

Any idea what melting point was measured for Cc1ccc(-c2nc(CCCCCCOC(C)(C)c3nnn[nH]3)c(C)o2)cc1 ?
87 °C
